- target_or_test_system: UniProt:P29466
- Sequence (P29466 120-297 limits assumed): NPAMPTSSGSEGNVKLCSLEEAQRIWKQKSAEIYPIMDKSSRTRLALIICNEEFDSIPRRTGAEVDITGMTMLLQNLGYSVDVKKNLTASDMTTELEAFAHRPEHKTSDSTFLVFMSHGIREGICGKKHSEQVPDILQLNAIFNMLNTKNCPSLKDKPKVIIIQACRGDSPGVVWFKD
- Sequence (P29466 317-404 limits assumed): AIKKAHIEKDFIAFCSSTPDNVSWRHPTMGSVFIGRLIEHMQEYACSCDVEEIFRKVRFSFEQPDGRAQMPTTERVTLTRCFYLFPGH
Exam item: assign Y to entries whose IC50 is below 1 µM and N to entries at or above 1 µM. Note that a value of exactly 1 µM receives N.

compound | target_or_test_system | category_label
CC/C=C\C/C=C\C/C=C\C/C=C\C/C=C\C/C=C\CCC(=O)O | UniProt:P29466 | N
CC1=CC(=O)C(C(C)C)=CC1=O | UniProt:P29466 | N
Cc1cc2c(C(C)C)c(O)c(O)c(C=O)c2c(O)c1-c1c(C)cc2c(C(C)C)c(O)c(O)c(C=O)c2c1O | UniProt:P29466 | N
CC1(C)CCC2=C(O1)c1ccccc1C(=O)C2=O [R115 (Reactive Blue 2)] | UniProt:P29466 | N
CCCCCCCCCCCCCCCC(=O)OC[C@H](O)[C@H]1OC(=O)C(O)=C1O [Ascorbyl Palmitate] | UniProt:P29466 | Y
CC(Cc1ccc(O)c(O)c1)C(C)Cc1ccc(O)c(O)c1 (centres undefined) | UniProt:P29466 | N
C[C@]12C=CC(=O)C=C1CC[C@@H]1C2=CC[C@]2(C)[C@@H](C(=O)CN3CCN(c4cc(N5CCCC5)nc(N5CCCC5)n4)CC3)CC[C@@H]12 [U74389G (B9)] | UniProt:P29466 | Y
O=c1c2ccccc2[se]n1-c1ccccc1 [2-Phenyl-benzo[d]isoselenazol-3-one] | UniProt:P29466 | N

Q. Determine if Cc1c(C)c2c(c(C)c1O)CC[C@](C)(CN1CCN(c3cc(N4CCCC4)nc(N4CCCC4)n3)CC1)O2 [U83836E (B8)] shows IC50 strictly lower than 1 µM.
A. Y
